system: PGE1-binding sites (3H-PGE1-receptors) on human hypernephroma cells; assay: Saturation binding of 3H-PGE1 to cultured hypernephroma cells (Scatchard analysis); details: control group (group 1), no ASA, no irradiation; mean of cell lines; listed as 3H-PGE1; read-out: Kd (dissociation constant), 3H-PGE1 binding
pKd: −log10 of the molar value.
QUANTITY: pKd

QUERY: Give its pKd value. Item: "CCCCC[C@H](O)/C=C/[C@H]1[C@H](O)CC(=O)[C@@H]1CCCCCCC(=O)O"
RESULT: ~8.40

Data origin: paper PMC1968618
